These entries and their values trace back to ChEMBL document CHEMBL4011632.

# Assay Details: Volume of distribution at steady state in Sprague-Dawley rat at 2 mg/kg, iv by HPLC-MS analysis
# Assay type: ADME, organism-based
# Setup Conditions: in vivo, read-out: Vdss
Observed Property: Vd (L/kg)
Answer in L/kg, number only, no unit symbol.

O=C1NC(=O)/C(=C/c2ccc(-c3ccc(-n4c(-c5cccs5)cc(/C=C5\SC(=O)NC5=O)c4-c4cccs4)cc3)cc2)S1    0.1

Shift focus to the following entry.
Which Vd reading was recorded for the molecule "O=C(Cc1ccccc1)Nc1nnc(CCSCCc2nnc(NC(=O)Cc3ccccc3)s2)s1" ? 8.8

* * *

# Assay Details: Tmax in Sprague-Dawley rat at 1 mg/kg, po by HPLC-MS analysis
# Type: ADME, organism-based
# Setup Conditions: in vivo
Observed Property: Tmax (h)
Provide the reading as a plain figure in h.

Entry "Cc1cc(/C=C2\SC(=O)NC2=O)c(C)n1-c1ccc(-c2ccc(/C=C3\SC(=O)NC3=O)cc2)cc1" : reported Tmax = ? 4

* * *

# Assay System: Glutaminase kidney isoform, mitochondrial (Homo sapiens, UniProt O94925)
# Sequence (O94925 whole entry): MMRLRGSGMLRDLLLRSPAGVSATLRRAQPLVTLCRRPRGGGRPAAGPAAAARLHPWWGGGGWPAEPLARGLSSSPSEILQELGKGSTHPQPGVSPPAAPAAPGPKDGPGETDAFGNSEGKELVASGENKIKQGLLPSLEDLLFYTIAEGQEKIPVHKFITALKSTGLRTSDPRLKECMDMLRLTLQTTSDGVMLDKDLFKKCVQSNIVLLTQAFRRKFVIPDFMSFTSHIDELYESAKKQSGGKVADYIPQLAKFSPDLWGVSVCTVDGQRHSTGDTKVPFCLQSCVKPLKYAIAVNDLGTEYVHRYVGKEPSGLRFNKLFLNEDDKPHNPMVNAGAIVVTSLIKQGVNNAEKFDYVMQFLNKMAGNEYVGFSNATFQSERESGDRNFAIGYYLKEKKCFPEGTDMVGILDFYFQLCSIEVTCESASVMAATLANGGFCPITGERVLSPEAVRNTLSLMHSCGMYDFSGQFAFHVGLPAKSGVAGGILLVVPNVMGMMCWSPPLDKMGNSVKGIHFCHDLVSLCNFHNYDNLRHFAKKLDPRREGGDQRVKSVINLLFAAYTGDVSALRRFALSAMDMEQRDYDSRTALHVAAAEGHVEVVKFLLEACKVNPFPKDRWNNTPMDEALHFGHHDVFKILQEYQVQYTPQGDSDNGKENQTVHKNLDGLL
# Assay Details: Inhibition of recombinant human His-tagged KGA (L123 to L669 residues) expressed in Escherichia coli BL21(DE3)pLysS using glutamine substrate preincubated for 10 mins followed by substrate addition measured after 60 mins by glutamate dehydrogenase coupled enzyme assay
Observed Property: pIC50
Scale: pIC50 equals -log10([C]), with [C] in mol/L.

Cc1cc(/C=C2\SC(=O)NC2=O)c(C)n1-c1ccc(Br)cc1    5.51

Lab note: need pIC50 with Glutaminase kidney isoform, mitochondrial (Homo sapiens, UniProt O94925) for entry "Cc1cc(/C=C2\SC(=O)NC2=O)c(C)n1-c1ccc(-c2ccc(/C=C3\SC(=O)NC3=O)c(Cl)c2)cc1" , please look it up. 7.24

Could you share what pIC50 was measured for "Cc1cc(/C=C2\SC(=O)NC2=O)c(C)n1-c1ccc(-c2ccc(/C=C3\SC(=O)NC3=O)cc2)c(O)c1" , tested on Glutaminase kidney isoform, mitochondrial (Homo sapiens, UniProt O94925)? 6.61

Provide the documented pIC50 with Glutaminase kidney isoform, mitochondrial (Homo sapiens, UniProt O94925) as the system for "COc1cc(-n2c(C)cc(/C=C3\SC(=O)NC3=O)c2C)ccc1-c1ccc(/C=C2\SC(=O)NC2=O)cc1" 6.61

What reported pIC50 corresponds to "O=C1NC(=O)/C(=C/c2ccc(-c3ccc(-n4c(-c5cccs5)cc(/C=C5\SC(=O)NC5=O)c4-c4cccs4)cc3)cc2)S1" on Glutaminase kidney isoform, mitochondrial (Homo sapiens, UniProt O94925)? 7.30

Reported pIC50 for Glutaminase kidney isoform, mitochondrial (Homo sapiens, UniProt O94925), given "COc1cc(-n2c(-c3cccs3)cc(/C=C3\SC(=O)NC3=O)c2-c2cccs2)ccc1-c1ccc(/C=C2\SC(=O)NC2=O)cc1" ? 7.46

Fill in the recorded pIC50 for this compound, with Glutaminase kidney isoform, mitochondrial (Homo sapiens, UniProt O94925) as test system: "Cc1cc(/C=C2\SC(=O)NC2=O)c(C)n1-c1ccc(-c2ccc(/C=C3\SC(=O)NC3=O)cc2)cc1" 6.99

Notebook: pull reported pIC50 for Glutaminase kidney isoform, mitochondrial (Homo sapiens, UniProt O94925), entry "COc1cc(-n2c(-c3ccccc3)cc(/C=C3\SC(=O)NC3=O)c2-c2ccccc2)ccc1-c1ccc(/C=C2\SC(=O)NC2=O)cc1" 7.32
